- System: HOP-62
- ASSAY OVERVIEW: NCI tumour cell line growth inhibition, 48 h
Activity calls are given as the source filed them. No stated cut-off is given here; in the data, active = GI50 up to about 1.1 µM and inactive = higher.
The categories you may choose from are active, inactive

Use these answered entries as a reference point.
Query: Status in this test for C=C1C(=O)C2=CC1CCC(=O)C1(C)CCC(OC(C)=O)C(C)(C)C1CC2O (centres undefined) ?
Reply: inactive

Query: Status in this test for CN1C(=O)C2(Cc3cn(C45CC67SSC(CO)(C(=O)N6C4Nc4ccccc45)N(C)C7=O)c4ccccc34)SSC1(CO)C(=O)N2C (centres undefined) ?
Reply: active

Query: Status in this test for COc1cc(C2c3cc4c(cc3[C@@H](Nc3ccccc3)C3COC[C@H]23)OCO4)cc(OC)c1O (some centres undefined) ?
Reply: inactive

Query: Status in this test for O=C1Cc2c([nH]c3ccc([N+](=O)[O-])cc23)-c2ccccc2N1 [ALSTERPAULLONE] ?
Reply: active

Query: Status in this test for O=C1CCCCCCC2=C1C(Sc1ccccc1)CC2 (centres undefined) ?
Reply: inactive

New cases:
Query: Status in this test for CCN(CC)CCC(=O)NC1c2ccccc2Oc2c(C)cccc21 (centres undefined) ?
Reply: inactive

Query: Status in this test for Cc1cccc(C(C)C)c1NC(=O)C(=O)C(C(=O)c1ccccc1F)C1OC(=O)c2ccccc21 (centres undefined) ?
Reply: inactive

Query: Status in this test for CC(O)c1cc2c(s1)C(=O)c1c(C(C)O)csc1C2=O (centres undefined) ?
Reply: active

Query: Status in this test for "O=C(NCCCC/N=c1/cccccc1NCCCCNC(=O)OCc1ccccc1)OCc1ccccc1" ?
Reply: inactive
